Tested on: 885724-159-R-J1-PDC complex spheroid viability
assay.procedure: Anticancer human tumor 885724-159-R-J1-PDC patient-derived pancreatic adenocarcinoma cell line growth inhibition [GQUAD]
condition.context: curve of first compound; second compound 0.0316 µM
pIC50: −log10 of the molar value.
endpoint.name: pIC50

>  <compound>
CC(C)n1c(=O)n(C)c2cnc3cc(F)c(-c4ccc(OCCCN5CCCCC5)nc4)cc3c21 + CN(C)c1ccc(Nc2c3ccc(NC(=O)CCN4CCCC4)cc3nc3cc(NC(=O)CCN4CCCC4)ccc23)cc1

>  <bound.sign>
<

>  <observed.measurement>
5.00

$$$$
>  <compound>
CC1COCCN1c1cc(C2(S(C)(=N)=O)CC2)nc(-c2ccnc3[nH]ccc23)n1 (stereo not given) + CN(C)c1ccc(Nc2c3ccc(NC(=O)CCN4CCCC4)cc3nc3cc(NC(=O)CCN4CCCC4)ccc23)cc1

>  <bound.sign>
<

>  <observed.measurement>
5.00

$$$$
>  <compound>
COc1cccc2c1C(=O)c1c(O)c3c(c(O)c1C2=O)CC(O)(C(=O)CO)CC3OC1CC(N)C(O)C(C)O1 (stereo not given) + Cc1cnc(CNC(=O)c2c(=O)c3ccc(N4CCCN(C)CC4)nc3n3c2sc2ccccc23)cn1

>  <bound.sign>
=

>  <observed.measurement>
5.62

$$$$
>  <compound>
COc1cc(C2c3cc4c(cc3C(OC3OC5COC(C)OC5C(O)C3O)C3COC(=O)C23)OCO4)cc(OC)c1O (stereo not given) + Cc1[nH]c2ccc(F)cc2c1-c1nc2c3cccnc3c3ncccc3c2[nH]1

>  <bound.sign>
<

>  <observed.measurement>
5.00

$$$$
>  <compound>
CC(=O)O[C@H]1C(=O)[C@@]2(C)[C@H]([C@H](OC(=O)c3ccccc3)[C@]3(O)C[C@H](OC(=O)[C@H](O)[C@@H](NC(=O)c4ccccc4)c4ccccc4)C(C)=C1C3(C)C)[C@]1(OC(C)=O)CO[C@@H]1C[C@@H]2O + Cc1[nH]c2ccc(F)cc2c1-c1nc2c3cccnc3c3ncccc3c2[nH]1

>  <bound.sign>
<

>  <observed.measurement>
5.00

$$$$
>  <compound>
CC1COCCN1c1cc(-c2ccnn2C)c2ccnc(-c3ccn[nH]3)c2n1 (stereo not given) + Cc1cnc(CNC(=O)c2c(=O)c3ccc(N4CCCN(C)CC4)nc3n3c2sc2ccccc23)cn1

>  <bound.sign>
=

>  <observed.measurement>
5.58

$$$$
>  <compound>
O=c1[nH]cc(F)c(=O)[nH]1 + Cc1cnc(CNC(=O)c2c(=O)c3ccc(N4CCCN(C)CC4)nc3n3c2sc2ccccc23)cn1

>  <bound.sign>
<

>  <observed.measurement>
5.00

$$$$
>  <compound>
CC1COCCN1c1cc(C2(O)CC3CCC(C2)O3)c2cnn(-c3ccn[nH]3)c2n1 (stereo not given) + CN(C)c1ccc(Nc2c3ccc(NC(=O)CCN4CCCC4)cc3nc3cc(NC(=O)CCN4CCCC4)ccc23)cc1

>  <bound.sign>
=

>  <observed.measurement>
5.83

$$$$
>  <compound>
COc1ncnc(C2CC2)c1-c1ncc2cnn(Cc3ccc(-c4nc(C(F)(F)F)cn4C(C)C)cc3)c2n1 + CN(C)c1ccc(Nc2c3ccc(NC(=O)CCN4CCCC4)cc3nc3cc(NC(=O)CCN4CCCC4)ccc23)cc1

>  <bound.sign>
<

>  <observed.measurement>
5.00

$$$$
>  <compound>
O=C(NO)c1cnc(N2CCN(S(=O)(=O)c3ccc4ccccc4c3)CC2)nc1 + Cc1cnc(CNC(=O)c2c(=O)c3ccc(N4CCCN(C)CC4)nc3n3c2sc2ccccc23)cn1

>  <bound.sign>
=

>  <observed.measurement>
6.26

$$$$
>  <compound>
CC1COCCN1c1cc(-c2ccnn2C)c2ccnc(-c3ccn[nH]3)c2n1 (stereo not given) + CN(C)c1ccc(Nc2c3ccc(NC(=O)CCN4CCCC4)cc3nc3cc(NC(=O)CCN4CCCC4)ccc23)cc1

>  <bound.sign>
=

>  <observed.measurement>
5.12

$$$$
>  <compound>
CCc1c2c(nc3ccc(O)cc13)-c1cc3c(c(=O)n1C2)COC(=O)[C@]3(O)CC + Cc1cnc(CNC(=O)c2c(=O)c3ccc(N4CCCN(C)CC4)nc3n3c2sc2ccccc23)cn1

>  <bound.sign>
=

>  <observed.measurement>
7.09

$$$$
>  <compound>
O=C(NO)c1cnc(N2CCN(S(=O)(=O)c3ccc4ccccc4c3)CC2)nc1 + Cc1[nH]c2ccc(F)cc2c1-c1nc2c3cccnc3c3ncccc3c2[nH]1

>  <bound.sign>
=

>  <observed.measurement>
6.06

$$$$
>  <compound>
CC(=O)O[C@H]1C(=O)[C@@]2(C)[C@H]([C@H](OC(=O)c3ccccc3)[C@]3(O)C[C@H](OC(=O)[C@H](O)[C@@H](NC(=O)c4ccccc4)c4ccccc4)C(C)=C1C3(C)C)[C@]1(OC(C)=O)CO[C@@H]1C[C@@H]2O + Cc1cnc(CNC(=O)c2c(=O)c3ccc(N4CCCN(C)CC4)nc3n3c2sc2ccccc23)cn1

>  <bound.sign>
<

>  <observed.measurement>
5.00

$$$$
>  <compound>
CC1COCCN1c1cc(C2(O)CC3CCC(C2)O3)c2cnn(-c3ccn[nH]3)c2n1 (stereo not given) + Cc1[nH]c2ccc(F)cc2c1-c1nc2c3cccnc3c3ncccc3c2[nH]1

>  <bound.sign>
=

>  <observed.measurement>
5.72

$$$$
>  <compound>
Nc1ccn(C2OC(CO)C(O)C2(F)F)c(=O)n1 (stereo not given) + Cc1[nH]c2ccc(F)cc2c1-c1nc2c3cccnc3c3ncccc3c2[nH]1

>  <bound.sign>
<

>  <observed.measurement>
5.00

$$$$
>  <compound>
Cc1cccc(N(C)C(=O)C2C(O)CCN2c2nc(C)cc(C(F)(F)F)c2C#N)c1 (stereo not given) + CN(C)c1ccc(Nc2c3ccc(NC(=O)CCN4CCCC4)cc3nc3cc(NC(=O)CCN4CCCC4)ccc23)cc1

>  <bound.sign>
<

>  <observed.measurement>
5.00

$$$$
>  <compound>
COc1ccc([C@@H](O)c2cc(-c3ncnc4cc(N5CCOCC5)ccc34)c(F)cc2Cl)nn1 + Cc1cnc(CNC(=O)c2c(=O)c3ccc(N4CCCN(C)CC4)nc3n3c2sc2ccccc23)cn1

>  <bound.sign>
=

>  <observed.measurement>
5.27

$$$$
>  <compound>
C=CCn1c(=O)c2cnc(Nc3ccc(N4CCN(C)CC4)cc3)nc2n1-c1cccc(C(C)(C)O)n1 + Cc1cnc(CNC(=O)c2c(=O)c3ccc(N4CCCN(C)CC4)nc3n3c2sc2ccccc23)cn1

>  <bound.sign>
<

>  <observed.measurement>
5.00

$$$$
>  <compound>
CC1COCCN1c1cc(C2(S(C)(=N)=O)CC2)nc(-c2ccnc3[nH]ccc23)n1 (stereo not given) + Cc1cnc(CNC(=O)c2c(=O)c3ccc(N4CCCN(C)CC4)nc3n3c2sc2ccccc23)cn1

>  <bound.sign>
<

>  <observed.measurement>
5.00

$$$$

====

System: 885724-159-R-J1-PDC complex spheroid viability
assay.procedure: Anticancer human tumor 885724-159-R-J1-PDC cell line growth inhibition [GQUAD];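 also: spheroids exposed to agents for seven days before readout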;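 as to viability, T/C: percent of vehicle control viability where 100% = DMSO wells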
condition.context: second compound 1 µM; first compound 0.316 µM; stronger effect = lower value
// boundary case: viability, T/C equal to 80% maps to not satisfied; strictly smaller maps to satisfied

>  <compound>
C=CC(=O)N1CCN(c2nc(=O)n(-c3c(C)ccnc3C(C)C)c3nc(-c4c(O)cccc4F)c(F)cc23)C(C)C1 (stereo unspecified) + Cc1cnc(CNC(=O)c2c(=O)c3ccc(N4CCCN(C)CC4)nc3n3c2sc2ccccc23)cn1

>  <test.target>
885724-159-R-J1-PDC complex spheroid viability

>  <group>
not satisfied

$$$$
>  <compound>
CC[C@@]1(O)C(=O)OCc2c1cc1n(c2=O)Cc2cc3c(CN(C)C)c(O)ccc3nc2-1 + Cc1cnc(CNC(=O)c2c(=O)c3ccc(N4CCCN(C)CC4)nc3n3c2sc2ccccc23)cn1

>  <test.target>
885724-159-R-J1-PDC complex spheroid viability

>  <group>
satisfied

$$$$
>  <compound>
Nc1ccn(C2OC(CO)C(O)C2(F)F)c(=O)n1 (stereo unspecified) + CN(C)c1ccc(Nc2c3ccc(NC(=O)CCN4CCCC4)cc3nc3cc(NC(=O)CCN4CCCC4)ccc23)cc1

>  <test.target>
885724-159-R-J1-PDC complex spheroid viability

>  <group>
satisfied

$$$$
>  <compound>
CC(C)n1c(=O)n(C)c2cnc3cc(F)c(-c4ccc(OCCCN5CCCCC5)nc4)cc3c21 + Cc1cnc(CNC(=O)c2c(=O)c3ccc(N4CCCN(C)CC4)nc3n3c2sc2ccccc23)cn1

>  <test.target>
885724-159-R-J1-PDC complex spheroid viability

>  <group>
not satisfied

$$$$
>  <compound>
Cc1cccc(N(C)C(=O)C2C(O)CCN2c2nc(C)cc(C(F)(F)F)c2C#N)c1 (stereo unspecified) + Cc1cnc(CNC(=O)c2c(=O)c3ccc(N4CCCN(C)CC4)nc3n3c2sc2ccccc23)cn1

>  <test.target>
885724-159-R-J1-PDC complex spheroid viability

>  <group>
not satisfied

$$$$
>  <compound>
C=CCn1c(=O)c2cnc(Nc3ccc(N4CCN(C)CC4)cc3)nc2n1-c1cccc(C(C)(C)O)n1 + CN(C)c1ccc(Nc2c3ccc(NC(=O)CCN4CCCC4)cc3nc3cc(NC(=O)CCN4CCCC4)ccc23)cc1

>  <test.target>
885724-159-R-J1-PDC complex spheroid viability

>  <group>
satisfied

$$$$
>  <compound>
COc1ncnc(C2CC2)c1-c1ncc2cnn(Cc3ccc(-c4nc(C(F)(F)F)cn4C(C)C)cc3)c2n1 + Cc1[nH]c2ccc(F)cc2c1-c1nc2c3cccnc3c3ncccc3c2[nH]1

>  <test.target>
885724-159-R-J1-PDC complex spheroid viability

>  <group>
satisfied

$$$$
>  <compound>
C=CCn1c(=O)c2cnc(Nc3ccc(N4CCN(C)CC4)cc3)nc2n1-c1cccc(C(C)(C)O)n1 + Cc1cnc(CNC(=O)c2c(=O)c3ccc(N4CCCN(C)CC4)nc3n3c2sc2ccccc23)cn1

>  <test.target>
885724-159-R-J1-PDC complex spheroid viability

>  <group>
not satisfied

$$$$
>  <compound>
Cc1cccc(N(C)C(=O)C2C(O)CCN2c2nc(C)cc(C(F)(F)F)c2C#N)c1 (stereo unspecified) + Cc1[nH]c2ccc(F)cc2c1-c1nc2c3cccnc3c3ncccc3c2[nH]1

>  <test.target>
885724-159-R-J1-PDC complex spheroid viability

>  <group>
satisfied

$$$$
>  <compound>
C=CC(=O)N1CCN(c2nc(=O)n(-c3c(C)ccnc3C(C)C)c3nc(-c4c(O)cccc4F)c(F)cc23)C(C)C1 (stereo unspecified) + Cc1[nH]c2ccc(F)cc2c1-c1nc2c3cccnc3c3ncccc3c2[nH]1

>  <test.target>
885724-159-R-J1-PDC complex spheroid viability

>  <group>
satisfied

$$$$
